Reported pIC50 values for a set of molecules
# Assayed System: Human full-length Hsp90 (Homo sapiens)
# Construct: E. coli expressed human full-length HSP90 protein, purified >95%; made in house; host or cells: E. coli
# Sequence (P08238 whole entry): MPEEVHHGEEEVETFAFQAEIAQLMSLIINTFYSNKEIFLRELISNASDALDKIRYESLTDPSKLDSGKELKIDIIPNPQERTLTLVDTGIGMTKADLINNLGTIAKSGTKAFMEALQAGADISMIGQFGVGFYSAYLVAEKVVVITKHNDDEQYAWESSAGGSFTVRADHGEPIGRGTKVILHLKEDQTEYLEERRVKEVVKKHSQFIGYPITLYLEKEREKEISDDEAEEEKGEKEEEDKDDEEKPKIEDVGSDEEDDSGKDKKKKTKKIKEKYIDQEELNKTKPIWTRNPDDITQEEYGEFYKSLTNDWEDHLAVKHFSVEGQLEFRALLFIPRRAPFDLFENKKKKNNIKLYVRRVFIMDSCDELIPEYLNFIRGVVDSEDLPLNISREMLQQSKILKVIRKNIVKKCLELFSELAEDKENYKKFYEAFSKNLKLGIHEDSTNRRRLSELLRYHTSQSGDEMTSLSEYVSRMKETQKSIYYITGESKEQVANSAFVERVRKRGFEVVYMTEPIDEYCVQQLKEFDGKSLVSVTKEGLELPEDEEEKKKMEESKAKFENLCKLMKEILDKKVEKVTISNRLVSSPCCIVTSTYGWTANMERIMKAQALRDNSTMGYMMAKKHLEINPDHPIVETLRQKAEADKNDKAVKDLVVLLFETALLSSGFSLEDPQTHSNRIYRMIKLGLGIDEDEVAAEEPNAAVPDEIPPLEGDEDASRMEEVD
# Protocol Notes: Fluorescence polarization assay (competitive binding to HSP90, probe RBT0045864-FAM)
# Test Context: fluorescence polarization assay, activity range; read-out: Hsp90 FP IC50
# Description: Fluorescence Polarization Assay Fluorescence polarization {also known as fluorescence anisotropy} measures the rotation of a fluorescing species in solution, where the larger molecule the more polarized the fluorescence emission. When the fluorophore is excited with polarized light, the emitted light is also polarized. The molecular size is proportional to the polarization of the fluorescence emission. […] Test compound is added to the assay plate, left to equilibrate and the anisotropy measured again. […]
pIC50: −log10 of the molar value.

CC=Cc1nc(N)nc2sc(C(=O)OCC)cc12
< 5.00

// query Given the molecule `Cc1ccc(-c2nc(N)nc3sc(C(=O)NCC(N)=O)cc23)c(C)c1` , write its reported pIC50.
// result > 5.00

// query Name the recorded pIC50 of the item `CCOC(=O)c1cc2c(-c3cc4ccccc4o3)nc(N)nc2s1` in your answer.
// result < 5.00

// query Output measured pIC50 for this item: `CCN(CC)CCOc1cc(-c2nc(N)nc3sc(C(=O)NC(C)(C)C)cc23)c(Cl)cc1Cl`
// result > 5.00

// query Report pIC50 for `CCN(CC)CCCNC(=O)c1cc2c(-c3ccccc3)nc(N)nc2s1`
// result < 5.00

// query Specify reported pIC50 for the molecule shown: `Nc1nc(-c2ccccc2)c2cc(C(=O)NCCO)sc2n1`
// result > 5.00
